# TGT: Receptor tyrosine-protein kinase erbB-2 (Homo sapiens)
# TEST_METHOD_NOTES: reducers of endogenous Her2 protein level, primary screen, SKBR3 breast tumor cells, AlphaScreen, ATP viability (AID 461);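 further: lower value means less Her2 protein in the cells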
# MEASUREMENT_CONDITIONS: 18-24 h, at 10 µM, active compounds read low
Parameter: Her2 level. Scope: all listed entries.
Report the value in % with no unit label.

Solved entries (count: 2):
# COMPOUND, READING
data = [
    ("CCn1c(CCC(=O)Nc2nc3c(s2)CCCC3)nc2cc(S(=O)(=O)N(C)C)ccc21", 80),
    ("Cc1ccccc1Cn1ccc(NC(=O)c2cnn3c(C(F)(F)F)cc(-c4ccco4)nc23)n1", 81),
]

## Input Supply Her2 level measured with Receptor tyrosine-protein kinase erbB-2 (Homo sapiens) for "Cc1ccccc1NC(=O)CSc1nnc(Cc2cccn2C)n1-c1ccc(F)cc1" .
## Output 112

## Input Supply Her2 level measured with Receptor tyrosine-protein kinase erbB-2 (Homo sapiens) for Cc1cc2c(c(=O)o1)C(C13C=CC(CC1)C3)C(C#N)=C(N)O2 (configuration not stated) .
## Output 94.5

Entry source: PubChem BioAssay
